The reported measurements were obtained from PubChem BioAssay (NCI).

system: MCF7 breast; experiment: NCI-60 one-dose screen, 48 h (100 = growth as untreated, 0 = no growth, -100 = all killed); details: 10 µM unless noted
About 83,000 compounds went through this panel and 20% of them were active in at least one assay; those are over-represented in the sample as a whole.
REPORTED_PROPERTY: growth (%)
# output: bare number, implied unit %

Query block: Reported growth for "CC1(C)[C@@H](O)CC[C@]2(C)[C@H]3CC[C@@H]4[C@H]5[C@H](c6cn(-c7ccccc7)nn6)CC[C@]5(CO)CC[C@@]4(C)[C@]3(C)CC[C@@H]12" : what is it?
Result block: 52.8

Query block: Consider the compound "O=[N+]([O-])c1ccc(N=Nc2c(O)c(N=Nc3cc([N+](=O)[O-])cc([N+](=O)[O-])c3O)cc(N=Nc3cc(S(=O)(=O)O)cc4cc(S(=O)(=O)O)cc(O)c34)c2O)cc1" and give its measured growth.
Result block: 99.6

Query block: Could you share which growth value was measured for "CCCn1c2cc(OCc3cn(-c4ccc(Cl)cc4)nn3)ccc2c2ccnc(C)c21" ?
Result block: 73.3

* * *

system: HOP-92 NSCLC; assay: NCI-60 one-dose screen, 48 h (100 = growth as untreated, 0 = no growth, -100 = all killed); conditions: 10 µM unless noted
The panel holds about 83,000 compounds, 20% with a hit somewhere; the sample as a whole holds those more often.
Kindly supply the reported growth values for the records listed here.
Unit % implied. Number only.

Query block: Give HOP-92 NSCLC growth for "Cc1cc(C)c(NC(=O)c2sc3nc4c(cc3c2N)CCCCCC4)c(C)c1"
Result block: 51.3

Query block: // map "COc1cc2nc3c(=O)n(CCN(C)C)cnn3c(=O)c2cc1OC" to recorded growth (system: HOP-92 NSCLC)
Result block: 100

Query block: # get_value(readout= growth, system= HOP-92 NSCLC) for "O=C1[C@@H](OS(=O)(=O)CC(F)(F)F)[C@H](c2ccc(F)cn2)N1c1cc2c3ccccc3ccc2c2ccccc12"
Result block: 71.4

Query block: Field: growth (HOP-92 NSCLC). Entry: COc1ccc2c(c1)Oc1nc(N)c(C#N)c(N)c1C2Sc1ccc(O)cc1 (stereo not given)
Result block: 92.4

Query block: Form: Entry = "CCOCc1cc(C(C)(C)C)ccc1O" | System = HOP-92 NSCLC | growth = ____
Result block: 92.3

* * *

tested on: SF-268 CNS; assay: NCI-60 one-dose screen, 48 h (100 = growth as untreated, 0 = no growth, -100 = all killed); conditions: 10 µM unless noted
Compounds without any hit were thinned out: in the full panel of roughly 83,000, 20% have a hit.
Classification field. Basis: growth. Definitions: bucket A: < 30%; bucket B: ≥ 30% and < 90%; bucket C: ≥ 90%

Query block: Lab log: "CCC1=C[C@H]2CN(CCc3c([nH]c4ccccc34)[C@@](C(=O)OC)(c3cc4c(cc3OC)N(C)[C@H]3[C@@](O)(C(=O)OC)[C@H](OC(C)=O)[C@]5(CC)[C@@H]6C[C@@H]6CN6CC[C@]43[C@@H]65)C2)C1" — assign growth category
Result block: bucket A

Query block: Which category fits this record: "CCOC(=O)c1c(C)nc2c(c1N)/C(=C/c1cccs1)C(=O)N2Cc1ccccc1"
Result block: bucket B

Query block: Just checking, what class would you give "C=C(C)[C@@H]1CC[C@]2(C(=O)OCCOCCOCC[P+](c3ccccc3)(c3ccccc3)c3ccccc3)CC[C@]3(C)[C@H](CC[C@@H]4[C@@]5(C)CC[C@H](OC(=O)C(Cl)Cl)C(C)(C)[C@@H]5CC[C@]43C)[C@@H]12" here?
Result block: bucket A

Query block: Bin this entry: "O=C(Nc1cccc(-c2cccc(F)c2)c1)C1CCN(Cc2cccc3cccnc23)CC1"
Result block: bucket B

Query block: // bin(item) where item = "C=C1C(=O)O[C@H]2[C@H]1CC/C(COC(=O)NCc1nc3ccccc3[nH]1)=C\CC[C@@]1(C)O[C@@H]21"
Result block: bucket C

Query block: For the record "CC[C@]12C=CCN3CC[C@@]4(c5ccc(OC)cc5N(C)[C@H]4[C@@](O)(C(=O)OC)[C@@H]1OC(=O)CCC(=O)O[C@H]1CC[C@H]4[C@@H]5CC[C@H]6CC(=O)CC[C@]6(C)[C@H]5CC[C@]14C)[C@@H]32" , report the class its growth corresponds to.
Result block: bucket B

Query block: Class (by measured growth) for "C=C1C(=O)O[C@H]2[C@H]1CC/C(COC(=O)CCC(=O)OC/C1=C/CC[C@@]3(C)O[C@H]3[C@H]3OC(=O)C(=C)[C@@H]3CC1)=C\CC[C@@]1(C)O[C@@H]21"
Result block: bucket B

Query block: Which band does COc1ccc2c(c1)Oc1nc(N)c(C#N)c(N)c1C2Sc1ccc(O)cc1 (stereo not given) fall in?
Result block: bucket C

Query block: State the class of the compound shown: "COc1ccc(/C=C/C(=O)Nc2ncnc3nc[nH]c23)cc1"
Result block: bucket C

Query block: Returns: class label. Input: "C=C(C)[C@@H]1CC[C@]2(C(=O)O)CC[C@]3(C)[C@H](CC[C@@H]4[C@@]5(C)C[C@@H](CC#Cc6ccc(Cl)cc6)C(=O)C(C)(C)[C@@H]5CC[C@]43C)[C@@H]12"
Result block: bucket B

Query block: Exercise: read the entry COc1cc(C(C)c2ccc3c(ccn3C)c2)cc(OC)c1OC (stereo not given) and state which class it falls under.
Result block: bucket B

Query block: Which growth band matches "O=C(C[n+]1cccc2cc(Cl)ccc21)c1ccc2c(c1)CCCC2" ?
Result block: bucket A

Query block: Please indicate the class for "Cc1ccc2nc3nc4ccc[nH]c4cc3c2c1" based on its growth.
Result block: bucket C

Query block: Returns: class label. Input: "COc1ccc(-c2cc(-c3nnc(SCC(=O)Nc4ccc(C(C)=O)cc4)o3)c3ccccc3n2)cc1"
Result block: bucket B
